// data source = PubChem BioAssay (NCI)

A collection of molecules and their measured growth
Test system: MCF7 breast
Assay: NCI-60 one-dose screen, 48 h (100 = growth as untreated, 0 = no growth, -100 = all killed)
Conditions: 10 µM unless noted
This is part of a sample that, as a whole, favours compounds with a hit. Of some 83,000 tested, about 20% had one in any assay. The source made the active and inactive calls. Rule for the calls: active = growth percent below 10; inactive = the rest.

// known answers, use as guide
>  <MOLECULE>
CC1(C)CC[C@]2(C(=O)O)CC[C@]3(C)C(=CC[C@@H]4[C@@]5(C)C/C(=C/c6ccco6)C(=O)C(C)(C)[C@@H]5CC[C@]43C)[C@@H]2C1

>  <growth>
-8.44% [100 µM] (active)

$$$$
>  <MOLECULE>
O=C(OCc1ccc2c(Cl)cc(Cl)c(O)c2n1)N1CCNCC1

>  <growth>
34.6% (inactive)

$$$$
>  <MOLECULE>
CCOC(CNC(=O)c1cccc([N+](=O)[O-])c1)OCC

>  <growth>
87.2% (inactive)

$$$$

Give its growth value. Item: "Cc1cc[n+](CCCCCCCCCC[n+]2ccc(C)cc2)cc1"
93.6% (inactive)

Give its growth value. Item: CC1Cc2c(Cl)ncnc2N(C)c2ccccc21 (stereo not given)
14.1% (inactive)

Give its growth value. Item: "Cn1cc(-c2noc(-c3cn(C)c4ncc(Br)cc34)n2)c2cc(Cl)ccc21"
65.9% (inactive)

Give its growth value. Item: "CS(=O)(=O)c1cccnn1"
94% (inactive)

Give its growth value. Item: "O=C(CSc1nc2ccc([N+](=O)[O-])cc2[nH]1)Nc1ccc(F)c(Cl)c1"
9.25% (active)

Give its growth value. Item: "Nc1nnc(CSc2nnc3n(Cc4ccccc4)c(=O)c4c5c(sc4n23)CCCC5)s1"
-30.9% (active)

Give its growth value. Item: "CCN(CC)c1ccc(/C=C/c2ccc3cc(C)ccc3[n+]2CC)cc1"
3.46% (active)
